Molecular target: hTRPV6 (Homo sapiens, UniProt Q9H1D0)
Sequence (Q9H1D0 whole entry): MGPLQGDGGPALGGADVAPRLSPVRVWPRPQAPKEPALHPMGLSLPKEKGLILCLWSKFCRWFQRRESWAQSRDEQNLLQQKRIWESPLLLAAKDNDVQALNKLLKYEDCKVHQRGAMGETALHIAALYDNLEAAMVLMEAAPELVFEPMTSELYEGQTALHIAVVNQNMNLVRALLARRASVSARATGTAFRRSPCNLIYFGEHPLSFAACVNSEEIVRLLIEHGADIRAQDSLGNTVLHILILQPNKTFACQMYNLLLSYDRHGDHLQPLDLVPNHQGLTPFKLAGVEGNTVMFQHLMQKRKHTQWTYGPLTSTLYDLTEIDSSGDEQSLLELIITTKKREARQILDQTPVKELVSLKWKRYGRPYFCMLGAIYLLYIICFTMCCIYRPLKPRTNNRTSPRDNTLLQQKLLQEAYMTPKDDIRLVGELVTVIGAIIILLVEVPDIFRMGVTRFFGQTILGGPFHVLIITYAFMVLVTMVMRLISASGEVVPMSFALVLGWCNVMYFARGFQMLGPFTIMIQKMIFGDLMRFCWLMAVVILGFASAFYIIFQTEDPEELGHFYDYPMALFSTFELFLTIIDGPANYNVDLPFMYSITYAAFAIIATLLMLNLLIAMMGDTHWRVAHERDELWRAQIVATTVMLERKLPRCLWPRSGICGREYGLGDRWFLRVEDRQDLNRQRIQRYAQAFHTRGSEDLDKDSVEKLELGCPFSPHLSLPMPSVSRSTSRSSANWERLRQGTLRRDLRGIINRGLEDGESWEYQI
Assay type: cell-based
Conditions: pIC50 – clog P, clog P from ChemDraw
Could you label it 1 (yes) if measured LLE (lipophilic ligand efficiency) is 2 or higher, and 0 (no) otherwise?

These solved cases illustrate the format of a correct answer.
| TEST_SMILES | EXPERIMENTAL_TARGET | CLASSIFICATION |
| --- | --- | --- |
| O=c1ccc(CN2CCN([C@H]3CC[C@@](O)(c4cccc(C(F)(F)F)c4)CC3)CC2)c[nH]1 | hTRPV6 (Homo sapiens, UniProt Q9H1D0) | 1 (yes) |
| Cc1cccc([C@H]2CC[C@@H](N3CCN(Cc4ccc(=O)[nH]c4)CC3)CC2)c1 | hTRPV6 (Homo sapiens, UniProt Q9H1D0) | 1 (yes) |
| O=c1ccc(CN2CCN([C@H]3CC[C@@](O)(c4ccccc4C(F)(F)F)CC3)CC2)c[nH]1 | hTRPV6 (Homo sapiens, UniProt Q9H1D0) | 1 (yes) |
| COc1ccc(CN2CCN([C@H]3CC[C@@H](c4ccccc4)CC3)CC2)cn1 | hTRPV6 (Homo sapiens, UniProt Q9H1D0) | 0 (no) |
| COc1cc(C(=O)N2CCN([C@H]3CC[C@@H](C(C)(C)C)CC3)CC2)ccc1O | hTRPV6 (Homo sapiens, UniProt Q9H1D0) | 0 (no) |

Query :: Threshold query (LLE (lipophilic ligand efficiency) >= 2) on O=c1ccc(CN2CCN([C@H]3CC[C@@H](c4cccc(C(F)(F)F)c4)CC3)CC2)c[nH]1
Result :: 1 (yes)
